molecular target: Muscarinic acetylcholine receptor M1 (Homo sapiens); test: Cholinergic receptor muscarinic 1 (CHRM1) small molecule antagonists, cell-based qHTS assay (AID 1963588); conditions: CHRM1-CHO antagonist mode, calcium flux fluorescence; series mostly up to 61.5 µM; also: nearly all actives have a fitted effect of over 40% in size
Results filed as inconclusive are left out. Activity calls are given as the source filed them. Calls follow the shape of the full dose curve.
MEASURE: outcome

compound=O=C(Cl)CCl measured_value=inactive
compound=O=C(O)COc1cc(Cl)c(Cl)cc1Cl measured_value=inactive
compound=O=[N+]([O-])c1ccc([As](=O)(O)O)cc1 measured_value=inactive
compound=C=C(C)[C@@H]1CC=C(C=O)CC1 measured_value=inactive
compound=CN=C=O measured_value=inactive
compound=O=S(=O)(c1ccc(O)cc1)c1ccc(O)cc1 measured_value=inactive
compound=CCOP(=S)(OCC)SCSC(C)(C)C measured_value=inactive
compound="CCC(C)c1cc([N+](=O)[O-])cc([N+](=O)[O-])c1O (stereo not given)" measured_value=inactive
compound=OCCOCCO measured_value=inactive
compound=C=CCOC(N)=O measured_value=inactive
compound=C[N+](=O)[O-] measured_value=inactive
compound=C[C@]12CCC(=O)C(O)=C1CC[C@@H]1[C@@H]2CC[C@]2(C)C(=O)CC[C@@H]12 measured_value=inactive
compound=Oc1ccccc1-c1ccccc1 measured_value=inactive
compound=O=C=NC1CCCCC1 measured_value=inactive
compound=CNC(=O)O/N=C/C(C)(C)S(C)(=O)=O measured_value=inactive
